Entries with reported pKi on UniProt:P41595
Sequence (P41595 whole entry): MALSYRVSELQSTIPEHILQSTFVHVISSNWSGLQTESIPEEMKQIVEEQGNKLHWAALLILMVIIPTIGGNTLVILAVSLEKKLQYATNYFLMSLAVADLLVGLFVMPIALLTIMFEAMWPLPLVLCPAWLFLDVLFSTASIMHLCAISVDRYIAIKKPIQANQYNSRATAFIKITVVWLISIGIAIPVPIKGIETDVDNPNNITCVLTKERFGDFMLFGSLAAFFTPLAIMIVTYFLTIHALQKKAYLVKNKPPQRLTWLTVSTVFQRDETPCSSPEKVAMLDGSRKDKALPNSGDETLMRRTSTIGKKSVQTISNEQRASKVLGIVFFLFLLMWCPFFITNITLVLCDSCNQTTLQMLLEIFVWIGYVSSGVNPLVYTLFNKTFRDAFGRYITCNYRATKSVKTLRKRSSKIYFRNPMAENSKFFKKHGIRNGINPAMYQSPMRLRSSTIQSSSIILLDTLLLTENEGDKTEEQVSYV
pKi: −log10 of the molar value.
endpointName: pKi

>>> df
                                   compound  result
0  Cc1ccc(N2CCC(c3ccc(Cl)c(Cl)c3)C2=O)cc1OCCN1CCCCC1 (stereo unspecified)  < 5.80
1  COc1ccc(N2CCC(c3ccc(OC)c(OCCN4CCCCC4)c3)C2=O)cc1F (stereo unspecified)  < 5.80
2  COc1ccc(N2CCC(c3cccc(F)c3)C2=O)cc1OCCN1CCCCC1 (stereo unspecified)  < 5.80
3  COc1ccc(N2CC=C(c3ccc(C(F)(F)F)cc3)C2=O)cc1OCCN1CCC(C)CC1  < 5.00
4  CC(=O)Nc1ccc(N2CCC(c3ccc(Cl)c(Cl)c3)C2=O)cc1OCCN1CCCCC1 (stereo unspecified)  < 5.80
5  COc1ccc(N2CC=C(c3ccc(C)cc3)C2=O)cc1OCCN1CCCCC1  < 6.00

###

# assayedSystem: UniProt P28335
# Sequence (P28335 whole entry): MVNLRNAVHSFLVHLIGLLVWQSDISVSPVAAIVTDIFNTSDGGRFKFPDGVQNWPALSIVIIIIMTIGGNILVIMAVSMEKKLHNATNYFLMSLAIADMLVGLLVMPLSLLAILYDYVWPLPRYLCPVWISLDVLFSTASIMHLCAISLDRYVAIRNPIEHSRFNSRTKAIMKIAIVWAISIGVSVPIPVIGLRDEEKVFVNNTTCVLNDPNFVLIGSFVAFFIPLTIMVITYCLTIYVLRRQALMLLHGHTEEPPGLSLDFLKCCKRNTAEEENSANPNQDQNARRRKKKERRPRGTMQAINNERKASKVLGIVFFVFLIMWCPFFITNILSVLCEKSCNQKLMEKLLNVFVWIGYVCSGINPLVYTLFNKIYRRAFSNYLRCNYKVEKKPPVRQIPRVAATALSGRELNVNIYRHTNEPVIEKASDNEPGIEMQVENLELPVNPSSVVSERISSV
So basically, if Ki comes in under 10 nM it's label 1, and if it's 10 nM or more it's label 0.

>>> print(df.to_string())
                                    molecule   assayedsystem  classassignment
 0  COc1ccc(N2CCC(C)(c3ccc(Cl)c(Cl)c3)C2=O)cc1OCCN1CCCCC1 (configuration not stated)  UniProt P28335          label 1
 1  COc1ccc(C2=CCN(c3ccc(Cl)c(Cl)c3)C2=O)cc1OCCN1CCCCC1  UniProt P28335          label 1
 2  COc1ccc(N2CC=C(c3ccc(C(F)(F)F)cc3)C2=O)cc1OCCN1CCCCC1  UniProt P28335          label 0
 3  COc1ccc(C2CCN(c3cccc(F)c3)C2=O)cc1OCCN1CCCCC1 (configuration not stated)  UniProt P28335          label 0
 4  O=C1C(c2ccc(Cl)c(Cl)c2)=CCN1c1ccc(Cl)c(OCCN2CCCCC2)c1  UniProt P28335          label 0
 5  Cc1ccc(N2CCC(c3ccc(Cl)c(Cl)c3)C2=O)cc1OCCN1CCCCC1 (configuration not stated)  UniProt P28335          label 0
 6  COc1ccc(N2CC=C(c3ccc(OC)c(OCCN4CCCCC4)c3)C2=O)cc1Cl  UniProt P28335          label 1
 7  COc1ccc(N2CCC(c3ccc(OC)c(OCCN4CCCCC4)c3)C2=O)cc1F (configuration not stated)  UniProt P28335          label 0
 8  O=C1C(c2ccc(Cl)c(Cl)c2)=CCN1c1ccc(OC(F)(F)F)c(OCCN2CCCCC2)c1  UniProt P28335          label 0
 9  COc1ccc(N2CC=C(c3ccc(F)cc3)C2=O)cc1OCCN1CCCCC1  UniProt P28335          label 1
10  COc1ccc(N2CCC(c3ccc(Cl)c(Cl)c3)C2=O)cc1OCCN1CCC(C)(C)CC1 (configuration not stated)  UniProt P28335          label 0
